Tested on: LNCaP_Vancouver prostate cells
experimental details: In Vitro LNCaP Vancouver Prostate Cell Proliferation Assay in Lipid Reduced Medium
Format: cell-based
measurement parameters: Prostate cell; 10% lipid reduced serum, 96 h, ATP-glow luminescence; read-out: pIC50 LNCaP_Vancouver prostate cell (converted)
The entries below come with measured IC50 values attached.
Numeric only. Scale: nM

Below, 6 compounds whose answers are already recorded.
# compound, unit text, IC50
data = [
    ("CC1(C)N=C(c2ccc(-c3n[nH]c4ccccc34)cc2F)N(C[C@@H]2CCN(C(=O)C3CC3)C2)C1=O [Compound 57]", "nM", 1780),
    ("COCC1(C)N=C(c2ccc(-c3ccc4c(cnn4C)c3)cc2)N(C[C@@H]2CCN(C(=O)C3CC3)C2)C1=O (mixture of isomers) [Compound 10]", "nM", 3630),
    ("CC1(C)N=C(c2ccc(-c3ccc4cncnc4c3)cc2)N(C[C@@H]2CCN(C(=O)C3CC3)C2)C1=O [Compound 42]", "nM", 1000),
    ("Cn1cc(-c2ccc(-c3ccc(C4=NC(C)(C)C(=O)N4C[C@@H]4CCN(C(=O)C5CC5)C4)c(F)c3)cc2)cn1 [Compound 45]", "nM", 117),
    ("CC1(C)N=C(c2ccc(-c3ccc4cncnc4c3)cc2F)N(C[C@@H]2CCN(C(=O)C3CC3)C2)C1=O [Compound 44]", "nM", 389),
    ("Cn1ncc2cc(-c3ccc(C4=NC(C)(C)C(=O)N4C[C@@H]4CCN(C(=O)C5(C)CC5)C4)c(F)c3)ccc21 [Compound 73]", "nM", 398),
]

Under LNCaP_Vancouver prostate cells: IC50 value of CC1(C)N=C(c2ccc(-c3ccc4cnccc4c3)cc2)N(CC2CN(C(=O)C3CC3)C2)C1=O [Compound 27] ?
1380

Under LNCaP_Vancouver prostate cells: IC50 value of CC1(C)N=C(c2ccc(-c3ccc4cccnc4c3)cc2)N(C[C@@H]2CCN(C(=O)C3CC3)C2)C1=O [Compound 23] ?
219

Under LNCaP_Vancouver prostate cells: IC50 value of CC1(C)N=C(c2ccc(-c3cnc4ccccc4c3)cc2F)N(C[C@@H]2CCN(C(=O)C3CC3)C2)C1=O [Compound 48] ?
3980

---

Test system: LNCaP_Vancouver prostate cells
experimental details: In Vitro LNCaP Vancouver Prostate Cell Proliferation Assay in Lipid Reduced Medium
Assay type: cell-based
measurement parameters: Prostate cell; 10% lipid reduced serum, 96 h, ATP-glow luminescence; read-out: pIC50 LNCaP_Vancouver prostate cell (converted)
The entries below come with measured log10 IC50 values attached.
Heads up, the numbers here are log10 of IC50 in µM units.

Below, 5 compounds whose answers are already recorded.
# compound, measured value
records = [
    ("CC1(C)N=C(c2ccc(-c3ccc(-c4ccncc4)cc3)cc2)N(C[C@@H]2CCN(C(=O)C3CC3)C2)C1=O", -0.12),
    ("Cn1cc(-c2ccc(-c3ccc(C4=NC(C)(C)C(=O)N4C[C@@H]4CCN(C(=O)C5CC5)C4)cc3)cc2)cn1", -0.48),
    ("Cc1cc(-c2ccc3c(cnn3C)c2)ccc1C1=NC(C)(C)C(=O)N1CC1CN(C(=O)C2(C)CC2)C1", 0.07),
    ("Cn1ncc2cc(-c3ccc(C4=NC(C)(c5ccccc5)C(=O)N4C[C@@H]4CCN(C(=O)C5CC5)C4)cc3)ccc21 (mixture of isomers)", 0.26),
    ("CC1(C)N=C(c2ccc(-c3ccc4cc(F)ccc4c3)cc2)N(C[C@@H]2CCN(C(=O)C3CC3)C2)C1=O", 0.53),
]

What value of log10 IC50 has been recorded for this entry: CC1(C)N=C(c2ccc(-c3c[nH]c4ccccc34)cc2F)N(CC2CN(C(=O)C3CC3)C2)C1=O
-0.11

What value of log10 IC50 has been recorded for this entry: CC1(c2ccccc2)N=C(c2ccc(-c3ccc4[nH]ccc4c3)cc2)N(C[C@@H]2CCN(C(=O)C3CC3)C2)C1=O (mixture of isomers)
-0.63

What value of log10 IC50 has been recorded for this entry: CC1(C)N=C(c2ccc(-c3ccc4cnccc4c3)cc2F)N(C[C@@H]2CCN(C(=O)C3CC3)C2)C1=O
-0.69

What value of log10 IC50 has been recorded for this entry: CC1(c2ccccc2)N=C(c2ccc(-c3ccc4occc4c3)cc2)N(C[C@@H]2CCN(C(=O)C3CC3)C2)C1=O (mixture of isomers)
0.64

What value of log10 IC50 has been recorded for this entry: CC1(C)N=C(c2ccc(-c3c[nH]c4ccccc34)cc2F)N(C[C@@H]2CCN(C(=O)C3CC3)C2)C1=O
-0.28

What value of log10 IC50 has been recorded for this entry: CC1(C2CC2)N=C(c2ccc(-c3ccc4occc4c3)cc2)N(C[C@@H]2CCN(C(=O)C3CC3)C2)C1=O (mixture of isomers)
0.31

What value of log10 IC50 has been recorded for this entry: CC1(C)N=C(c2ccc(-c3ccc(-c4ccncc4)cc3)cc2F)N(C[C@@H]2CCN(C(=O)C3CC3)C2)C1=O
-0.39

What value of log10 IC50 has been recorded for this entry: CC1(C)N=C(c2ccc(-c3ccc4cccc(F)c4c3)cc2)N(C[C@@H]2CCN(C(=O)C3CC3)C2)C1=O
0.06

What value of log10 IC50 has been recorded for this entry: CC1(C)N=C(c2ccc(-c3nc4ccccc4o3)cc2F)N(C[C@@H]2CCN(C(=O)C3CC3)C2)C1=O
-0.10

What value of log10 IC50 has been recorded for this entry: CC1(C)N=C(c2ccc(-c3cnc4ccccc4c3)cc2)N(C[C@@H]2CCN(C(=O)C3CC3)C2)C1=O
0.46

What value of log10 IC50 has been recorded for this entry: CC1(C)N=C(c2ccc(-c3nc4ccccc4s3)cc2F)N(CC2CN(C(=O)C3CC3)C2)C1=O
0.42

What value of log10 IC50 has been recorded for this entry: Cn1cc(-c2ccc(-c3ccc(C4=NC(C)(C)C(=O)N4CC4CN(C(=O)C5(C)CC5)C4)c(F)c3)cc2)cn1
-0.87

---

The entries below come with measured IC50 values attached.
Tested on: LNCaP_Vancouver prostate cells
experimental details: In Vitro LNCaP Vancouver Prostate Cell Proliferation Assay in Lipid Reduced Medium
Assay type: cell-based
measurement parameters: Prostate cell; 10% lipid reduced serum, 96 h, ATP-glow luminescence; read-out: pIC50 LNCaP_Vancouver prostate cell (converted)
Numeric only. Scale: µM

What value of IC50 has been recorded for this entry: CC1(C)N=C(c2ccc(-c3ccc4cccc(F)c4c3)cc2)N(CC2CN(C(=O)C3CC3)C2)C1=O [Compound 40]
2.04

What value of IC50 has been recorded for this entry: CC1(C)N=C(c2ccc(-c3ccc4cnccc4c3)cc2)N(C[C@@H]2CCN(C(=O)C3CC3)C2)C1=O [Compound 28]
1.58

What value of IC50 has been recorded for this entry: CC1(C)N=C(c2ccc(-c3ccc4cccnc4c3)cc2)N(CC2CN(C(=O)C3CC3)C2)C1=O [Compound 24]
1.45

What value of IC50 has been recorded for this entry: Cn1cc(-c2ccc(-c3ccc(C4=NC(C)(C)C(=O)N4C[C@@H]4CCN(C(=O)C5(C)CC5)C4)c(F)c3)cc2)cn1 [Compound 74]
0.0115

---

target desc: FASN Keto-reductase Domain (hFASN enzyme, full length) (Homo sapiens (Human), UniProt P49327)
Sequence (P49327 whole entry, the tested form may be a part): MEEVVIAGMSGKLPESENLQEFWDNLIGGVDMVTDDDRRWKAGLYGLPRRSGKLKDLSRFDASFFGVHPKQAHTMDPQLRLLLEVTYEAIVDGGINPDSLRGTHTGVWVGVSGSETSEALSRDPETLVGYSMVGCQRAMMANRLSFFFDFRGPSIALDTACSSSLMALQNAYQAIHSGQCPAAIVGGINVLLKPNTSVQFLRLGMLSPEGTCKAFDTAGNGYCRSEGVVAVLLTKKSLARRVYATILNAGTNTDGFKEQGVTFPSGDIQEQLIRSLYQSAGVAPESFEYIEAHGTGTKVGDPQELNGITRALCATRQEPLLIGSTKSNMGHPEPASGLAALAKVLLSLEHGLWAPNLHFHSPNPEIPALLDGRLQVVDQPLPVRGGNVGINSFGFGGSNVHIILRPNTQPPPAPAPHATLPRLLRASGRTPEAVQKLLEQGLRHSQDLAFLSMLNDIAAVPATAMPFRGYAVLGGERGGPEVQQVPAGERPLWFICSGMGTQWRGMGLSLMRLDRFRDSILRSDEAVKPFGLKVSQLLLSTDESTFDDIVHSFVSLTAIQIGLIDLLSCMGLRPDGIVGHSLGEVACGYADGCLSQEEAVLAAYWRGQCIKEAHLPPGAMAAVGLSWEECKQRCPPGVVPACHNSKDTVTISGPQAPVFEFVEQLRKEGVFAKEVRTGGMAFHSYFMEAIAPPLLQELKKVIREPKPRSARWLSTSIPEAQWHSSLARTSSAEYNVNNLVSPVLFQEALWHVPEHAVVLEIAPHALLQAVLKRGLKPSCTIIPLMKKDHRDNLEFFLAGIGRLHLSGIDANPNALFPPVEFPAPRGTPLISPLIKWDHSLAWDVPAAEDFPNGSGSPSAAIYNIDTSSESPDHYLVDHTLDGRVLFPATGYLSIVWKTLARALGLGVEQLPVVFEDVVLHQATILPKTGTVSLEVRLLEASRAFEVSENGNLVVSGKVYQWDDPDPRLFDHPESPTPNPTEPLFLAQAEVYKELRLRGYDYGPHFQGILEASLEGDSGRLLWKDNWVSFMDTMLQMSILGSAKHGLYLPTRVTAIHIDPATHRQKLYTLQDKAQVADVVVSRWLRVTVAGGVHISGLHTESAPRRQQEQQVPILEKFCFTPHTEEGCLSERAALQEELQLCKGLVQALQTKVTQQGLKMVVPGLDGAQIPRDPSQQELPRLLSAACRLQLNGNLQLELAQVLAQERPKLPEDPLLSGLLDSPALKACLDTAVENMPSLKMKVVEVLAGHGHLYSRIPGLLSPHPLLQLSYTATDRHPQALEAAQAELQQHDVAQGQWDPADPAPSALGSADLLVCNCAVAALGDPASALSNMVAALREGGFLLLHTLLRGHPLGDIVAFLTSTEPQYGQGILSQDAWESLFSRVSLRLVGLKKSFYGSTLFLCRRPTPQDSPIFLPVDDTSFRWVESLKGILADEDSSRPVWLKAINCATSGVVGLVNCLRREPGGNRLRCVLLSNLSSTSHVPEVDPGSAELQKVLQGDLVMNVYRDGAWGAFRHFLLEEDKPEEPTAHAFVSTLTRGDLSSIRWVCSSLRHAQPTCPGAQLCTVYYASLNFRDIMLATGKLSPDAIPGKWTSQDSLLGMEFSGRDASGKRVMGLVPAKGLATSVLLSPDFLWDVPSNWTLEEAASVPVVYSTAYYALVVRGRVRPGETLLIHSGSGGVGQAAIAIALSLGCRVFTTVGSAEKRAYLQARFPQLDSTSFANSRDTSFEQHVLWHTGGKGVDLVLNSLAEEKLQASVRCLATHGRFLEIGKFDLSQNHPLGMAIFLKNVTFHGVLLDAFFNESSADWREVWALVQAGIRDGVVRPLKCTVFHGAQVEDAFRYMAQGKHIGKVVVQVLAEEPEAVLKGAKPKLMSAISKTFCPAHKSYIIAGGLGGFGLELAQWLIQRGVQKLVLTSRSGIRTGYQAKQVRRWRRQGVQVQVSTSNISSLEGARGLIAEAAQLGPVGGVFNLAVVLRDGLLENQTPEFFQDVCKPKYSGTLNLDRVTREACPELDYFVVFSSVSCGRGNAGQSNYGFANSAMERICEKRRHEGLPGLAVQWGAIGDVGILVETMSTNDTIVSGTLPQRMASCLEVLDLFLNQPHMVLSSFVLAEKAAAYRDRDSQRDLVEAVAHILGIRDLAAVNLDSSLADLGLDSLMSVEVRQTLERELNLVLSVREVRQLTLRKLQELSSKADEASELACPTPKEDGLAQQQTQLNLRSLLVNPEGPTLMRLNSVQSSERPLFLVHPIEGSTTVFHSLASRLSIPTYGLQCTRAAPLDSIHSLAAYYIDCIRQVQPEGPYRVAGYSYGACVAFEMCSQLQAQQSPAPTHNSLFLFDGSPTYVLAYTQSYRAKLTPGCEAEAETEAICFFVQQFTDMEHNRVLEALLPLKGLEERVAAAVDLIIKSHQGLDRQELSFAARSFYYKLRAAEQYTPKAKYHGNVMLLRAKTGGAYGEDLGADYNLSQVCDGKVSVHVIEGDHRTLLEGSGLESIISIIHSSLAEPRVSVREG
experimental details: Fatty Acid Synthase Keto-Reductase Domain (FASN KR) Inhibition
Format: biochemical
measurement parameters: NADPH oxidation at 340 nm, ethyl acetoacetate substrate; mean if tested more than once; read-out: FASN Keto-reductase Domain pIC50 (converted)
The entries below come with measured IC50 values attached.
Numeric only. Scale: µM

Below, 3 compounds whose answers are already recorded.
# mol smiles, measured value
rows = [
    ("CC1(C)N=C(c2ccc(-c3c[nH]c4ccccc34)cc2F)N(C[C@@H]2CCN(C(=O)C3CC3)C2)C1=O", 0.186),
    ("CC1(C)N=C(c2ccc(-c3ccc4cnccc4c3)cc2F)N(C[C@@H]2CCN(C(=O)C3CC3)C2)C1=O", 0.0479),
    ("CC1(C)N=C(c2ccc(-c3n[nH]c4ccccc34)cc2F)N(C[C@@H]2CCN(C(=O)C3CC3)C2)C1=O", 2.75),
]

Consider the record given below.
What value of IC50 has been recorded for this entry: CC1(C)N=C(c2ccc(-c3ccc4cc(F)ccc4c3)cc2F)N(C[C@@H]2CCN(C(=O)C3CC3)C2)C1=O
0.0525

---

The entries below come with measured IC50 values attached.
System: LNCaP_Vancouver prostate cells
experimental details: In Vitro LNCaP Vancouver Prostate Cell Proliferation Assay in Lipid Reduced Medium
Format: cell-based
measurement parameters: Prostate cell; 10% lipid reduced serum, 96 h, ATP-glow luminescence; read-out: pIC50 LNCaP_Vancouver prostate cell (converted)
Experimental: LNCaP_Vancouver prostate cells were obtained from the Vancouver Prostate Cancer Centre. The next day 10 μl of test compound/DMSO diluted in medium was added (3E-5M, 1E-5M, 3E-6M,1E-6M, 3E-7M, 1E-7M, 3E-8M, 1E-8M final concentration). Compounds were tested in duplicate. After 96 h incubation at 37° C., 5% CO2 25 μl ATP-glow mix was added. The plate was incubated for 30 min at 37° C. and luminescence was measured with the Envision. […] pIC50 values were calculated as follows. […]
Numeric only. Scale: nM

Below, 4 compounds whose answers are already recorded.
# compound, unit text, measured value
measured = [
    ("CC1(C)N=C(c2ccc(-c3ccc4cccc(F)c4c3)cc2F)N(C[C@@H]2CCN(C(=O)C3CC3)C2)C1=O [Compound 67]", "nM", 407),
    ("CC1(C)N=C(c2ccc(-c3ccc4cnccc4c3)cc2F)N(CC2CN(C(=O)C3CC3)C2)C1=O [Compound 56]", "nM", 339),
    ("Cn1ncc2cc(-c3ccc(C4=NC(C)(C)C(=O)N4C[C@@H]4CCN(C(=O)C5CC5)C4)c(F)c3)ccc21 [Compound 53]", "nM", 724),
    ("Cc1cc(-c2ccc(-c3cnn(C)c3)cc2)ccc1C1=NC(C)(C)C(=O)N1CC1CN(C(=O)C2(C)CC2)C1 [Compound 87]", "nM", 178),
]

Consider the record given below.
What value of IC50 has been recorded for this entry: CC1(C)N=C(c2ccc(-c3nc4ccccc4o3)cc2F)N(CC2CN(C(=O)C3CC3)C2)C1=O [Compound 52]
1290
